- tgt: Gal(b1-4)GlcNAc(b1-2)[Gal(b1-4)GlcNAc(b1-4)]Man(a1-3)[Gal(b1-4)GlcNAc(b1-2)[Gal(b1-4)GlcNAc(b1-6)]Man(a1-6)]Man(b1-4)GlcNAc(b1-4)GlcNAc
- experimentDescription: glycan array binding signal (z-score within array); higher = stronger binding
- runConditions: glycan notation: IUPAC condensed, linker removed
Shown is part of a subset that was picked to be rich in the strongest signals.
resultType: glycan array binding signal (z-score)
// no unit string in output, number only

For orientation, consider the following solved cases.
CGL (Crenomytilus grayanus), H2FH31 (protein) MTTFLIKHKASGKFLHPYGGSSNPANNTKLVLHSDIHERMYFQFDVVDERWGYIKHVASGKIVHPYGGQANPPNETNMVLHQDRHDRALFAMDFFNDNIMHKGGKYIHPKGGSPNPPNNTETVIHGDKHAAMEFIFVSPKNKDKRVLVYA = 1.1
Gal 3 (Homo sapiens), P17931 (protein) MADNFSLHDALSGSGNPNPQGWPGAWGNQPAGAGGYPGASYPGAYPGQAPPGAYPGQAPPGAYHGAPGAYPGAPAPGVYPGPPSGPGAYPSSGQPSAPGAYPATGPYGAPAGPLIVPYNLPLPGGVVPRMLITILGTVKPNANILDFQRGNDVAFHFNPRFNENNRRVIVCNTKLDNNWGREERQSVFPFESGKPFKIQVLVEPDHFKVAVNDAHLLQYNHRVKKLNEISKLGISGDIDLTSASYTMI = 2.3

For the next question, use this binder.
// glycan array binding signal (z-score) value for MGL2 (Mus musculus), Q8JZN1 (protein) MTMRYENFQNLEREEKNQEMRNGDKKGGMESPKFALIPSQSFLWRILSWTHLLLFSLGLSLLLLVVISVIGSQNSQLRRDLGTLRAILDNTTSKIKAEFQSLDSRADNFEKGISSLKVDVEDHRQELQAGRDLSQKVTSLESTLEKREQALKTDLSDLTDHVQQLETDLKALTCQLANLKNNGSEVACCPLHWTEHEGSCYWFSESEKSWPEADKYCRLENSHLVVVNSLEEQNFLQNRLANVLSWMGLTDQNGPWRWVDGTDFDKGFKNWRPLQPDNWHGHMLGGGEDCAHFSYDGRWNDDVCQRHYHWICETELGKASSAHSPQLIASVP : -0.247
